Measured values drawn from patent US7368443B2 for this set.

Ki by entry:
molecular target: serotonin transporter (SERT) (Rattus norvegicus, UniProt P31652); construct: Rat hippocampus was homogenized in 20 mL cold 0.32 M sucrose; from tissue; host or cells: rat hippocampal synaptosomes; assay: [3H]5-HT uptake assay, hippocampal synaptosomes; assay type: biochemical; settings: read-out: inhibition of serotonin uptake Ki
Sequence (P31652 whole entry): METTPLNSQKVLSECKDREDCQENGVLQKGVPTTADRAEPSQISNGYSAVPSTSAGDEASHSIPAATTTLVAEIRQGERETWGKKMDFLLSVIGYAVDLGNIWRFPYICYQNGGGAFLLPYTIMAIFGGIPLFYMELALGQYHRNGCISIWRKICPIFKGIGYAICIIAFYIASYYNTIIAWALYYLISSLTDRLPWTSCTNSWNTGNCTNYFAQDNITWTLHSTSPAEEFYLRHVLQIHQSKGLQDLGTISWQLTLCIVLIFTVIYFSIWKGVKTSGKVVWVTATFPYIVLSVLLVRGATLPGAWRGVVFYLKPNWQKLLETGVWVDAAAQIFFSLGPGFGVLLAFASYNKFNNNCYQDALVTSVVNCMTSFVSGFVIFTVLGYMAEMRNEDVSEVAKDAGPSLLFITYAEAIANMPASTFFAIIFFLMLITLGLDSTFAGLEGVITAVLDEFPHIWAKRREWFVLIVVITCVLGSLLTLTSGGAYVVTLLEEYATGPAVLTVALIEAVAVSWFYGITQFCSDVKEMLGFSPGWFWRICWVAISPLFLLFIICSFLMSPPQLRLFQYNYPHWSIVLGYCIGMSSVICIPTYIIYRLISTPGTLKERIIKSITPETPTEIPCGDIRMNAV
Recorded metric: Ki

Record smiles	Test result
CN1[C@H](/C=C/c2ccccc2)CCC[C@H]1/C=C/c1ccccc1	0.01 to 0.38 µM
CN1[C@H](CCc2ccccc2)CCC[C@@H]1C[C@@H](O)c1ccccc1	0.01 to 0.38 µM

###

molecular target: α6β2* nicotinic receptor (Rattus norvegicus, UniProt P12390+P43143); assay: Nicotine-evoked [3H]DA overflow from superfused striatal slices; assay type: cell-based; conditions: Table 4; earlier studies; inhibition of 10 μM S(−)-nicotine; read-out: Inhibition of Nicotine-Evoked [3H]DA Overflow (IC50) α6β2*
Sequence (P43143 31-493): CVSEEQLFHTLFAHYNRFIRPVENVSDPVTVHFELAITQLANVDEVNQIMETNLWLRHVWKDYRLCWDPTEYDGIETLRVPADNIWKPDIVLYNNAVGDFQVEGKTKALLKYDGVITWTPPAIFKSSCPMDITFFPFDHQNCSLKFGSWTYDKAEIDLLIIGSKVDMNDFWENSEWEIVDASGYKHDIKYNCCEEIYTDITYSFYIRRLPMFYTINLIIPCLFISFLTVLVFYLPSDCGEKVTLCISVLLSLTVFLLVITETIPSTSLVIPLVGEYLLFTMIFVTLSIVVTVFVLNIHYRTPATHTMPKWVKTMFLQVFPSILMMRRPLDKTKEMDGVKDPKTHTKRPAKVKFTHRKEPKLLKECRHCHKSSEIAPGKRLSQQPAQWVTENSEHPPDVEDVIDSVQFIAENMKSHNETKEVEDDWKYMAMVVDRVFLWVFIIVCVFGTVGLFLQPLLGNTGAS
Sequence (P12390 25-500): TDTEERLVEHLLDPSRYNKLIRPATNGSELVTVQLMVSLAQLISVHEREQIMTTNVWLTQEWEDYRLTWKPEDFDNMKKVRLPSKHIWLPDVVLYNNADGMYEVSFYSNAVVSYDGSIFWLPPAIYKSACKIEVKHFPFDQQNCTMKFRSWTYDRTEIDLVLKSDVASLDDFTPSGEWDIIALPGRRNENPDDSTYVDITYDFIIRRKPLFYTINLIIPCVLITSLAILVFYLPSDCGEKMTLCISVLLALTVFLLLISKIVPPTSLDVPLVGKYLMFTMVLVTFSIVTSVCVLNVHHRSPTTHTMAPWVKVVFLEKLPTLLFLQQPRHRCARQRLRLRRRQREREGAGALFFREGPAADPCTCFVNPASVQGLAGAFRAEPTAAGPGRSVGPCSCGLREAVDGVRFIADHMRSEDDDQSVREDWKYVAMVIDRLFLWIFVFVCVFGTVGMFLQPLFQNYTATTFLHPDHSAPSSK
pIC50: −log10 of the molar value.

Molecule	pIC50
CN1[C@H](/C=C/c2ccccc2)CCC[C@H]1/C=C/c1ccccc1 [Compound 15]	6.27

###

Attribute: Ki
molecular target: serotonin transporter (SERT) (Rattus norvegicus, UniProt P31652); construct: Rat hippocampus was homogenized in 20 mL cold 0.32 M sucrose; from tissue; host or cells: rat hippocampal synaptosomes; experiment: [3H]5-HT uptake assay, hippocampal synaptosomes; type: biochemical; conditions: [3H]5-HT Uptake (Ki) SERT
Recorded metric: Ki

Record smiles	Test result
CN1[C@@H](C[C@@H](O)c2ccccc2)CCC[C@H]1/C=C/c1ccccc1	40 nM
CN1[C@@H](CCc2ccccc2)CCC[C@H]1CCc1ccccc1	1590 nM
CN1[C@H](CCc2ccccc2)CCC[C@H]1CCc1ccccc1	2920 nM

###

biological target: α4β2* nicotinic receptor (Rattus norvegicus, UniProt P09483+P12390); experiment: High affinity [3H]nicotine binding assay; set-up: The pellet containing the striatal membranes was resuspended; from tissue; host or cells: rat striatal membranes; conditions: Table 4; earlier studies; read-out: [3H]Nicotine Binding (Ki) α4β2*
Sequence (P09483 31-630): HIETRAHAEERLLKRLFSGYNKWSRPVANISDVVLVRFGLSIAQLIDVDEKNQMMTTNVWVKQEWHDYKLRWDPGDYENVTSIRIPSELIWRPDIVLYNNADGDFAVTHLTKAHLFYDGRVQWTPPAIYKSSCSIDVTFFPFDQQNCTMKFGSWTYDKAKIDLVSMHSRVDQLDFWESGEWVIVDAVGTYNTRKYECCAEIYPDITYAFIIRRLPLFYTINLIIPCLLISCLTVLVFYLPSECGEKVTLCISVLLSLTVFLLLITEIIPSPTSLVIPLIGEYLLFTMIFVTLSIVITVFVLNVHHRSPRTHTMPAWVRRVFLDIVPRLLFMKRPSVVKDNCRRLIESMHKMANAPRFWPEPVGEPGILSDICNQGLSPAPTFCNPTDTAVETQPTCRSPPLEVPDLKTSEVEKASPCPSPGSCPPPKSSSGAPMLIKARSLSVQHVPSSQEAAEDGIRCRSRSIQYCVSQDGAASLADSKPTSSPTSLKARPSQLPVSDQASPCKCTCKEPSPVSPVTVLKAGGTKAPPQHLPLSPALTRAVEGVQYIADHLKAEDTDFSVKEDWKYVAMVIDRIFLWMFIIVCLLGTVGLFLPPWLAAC
Sequence (P12390 25-500): as the sequence (P12390 25-500) above
Recorded metric: Ki

Record smiles	Recorded metric	Test result
CN1[C@H](/C=C/c2ccccc2)CCC[C@@H]1/C=C/c1ccccc1	Ki	11 µM
CN1[C@H](/C=C/c2ccccc2)CCC[C@H]1/C=C/c1ccccc1	Ki	13 µM

###

biological target: α4β2* nicotinic receptor (Rattus norvegicus, UniProt P09483+P12390); assay: High affinity [3H]nicotine binding assay; set-up: The pellet containing the striatal membranes was resuspended; from tissue; host or cells: rat striatal membranes; conditions: Table 1; rat striatal membranes; read-out: [3H]Nicotine Binding (Ki) α4β2*
Recorded measurements of Ki, one per entry

Compound	Qualifier	Ki / µM
CN1[C@@H](C[C@H](O)c2ccccc2)CCC[C@H]1/C=C/c1ccccc1 (relative stereo) [Compound 7]	>	100
CN1[C@@H](C[C@@H](O)c2ccccc2)CCC[C@H]1/C=C/c1ccccc1 [Compound 6]	=	7.6
CCCN1[C@@H](CCc2ccccc2)CCC[C@H]1CCc1ccccc1 [Compound 27]	>	100
CN1[C@H](CCc2ccccc2)CCC[C@@H]1C[C@H](O)c1ccccc1 [Compound 11]	=	32

###

Reported pKi is given for each of the following molecules.
target: UniProtKB Q01827
Sequence (Q01827 whole entry): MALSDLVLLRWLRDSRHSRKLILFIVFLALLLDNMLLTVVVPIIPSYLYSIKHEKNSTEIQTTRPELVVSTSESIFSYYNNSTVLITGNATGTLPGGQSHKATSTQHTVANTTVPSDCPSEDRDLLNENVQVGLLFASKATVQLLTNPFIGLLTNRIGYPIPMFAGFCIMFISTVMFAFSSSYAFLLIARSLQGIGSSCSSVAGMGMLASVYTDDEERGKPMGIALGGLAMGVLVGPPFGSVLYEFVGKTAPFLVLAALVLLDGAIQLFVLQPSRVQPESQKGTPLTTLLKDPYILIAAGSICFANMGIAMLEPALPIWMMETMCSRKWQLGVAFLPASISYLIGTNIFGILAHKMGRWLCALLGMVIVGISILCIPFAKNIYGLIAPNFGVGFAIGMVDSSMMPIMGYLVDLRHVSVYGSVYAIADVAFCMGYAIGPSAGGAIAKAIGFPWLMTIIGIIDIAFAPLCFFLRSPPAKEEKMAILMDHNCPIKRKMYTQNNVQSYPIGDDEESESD
pKi: −log10 of the molar value.

Record smiles	pKi
COc1ccccc1CC[C@H]1CCC[C@@H](CCc2ccccc2OC)N1C	6.17 to 6.37
COc1cccc(CC[C@H]2CCC[C@@H](CCc3cccc(OC)c3)N2C)c1	6.17 to 6.37

###

biological target: α6β2* nicotinic receptor (Rattus norvegicus, UniProt P12390+P43143); assay: Nicotine-evoked [3H]DA overflow from superfused striatal slices; format: cell-based; details: inhibition of nicotine-evoked [3H]DA overflow IC50
pIC50: −log10 of the molar value.

Record smiles	Assay system	pIC50
CN1[C@H](/C=C/c2ccccc2)CCC[C@@H]1/C=C/c1ccccc1	α6β2* nicotinic receptor (Rattus norvegicus, UniProt P12390+P43143)	9.52

###

target: α7* nicotinic receptor (Rattus norvegicus); construct: Whole rat brain (minus cortex, striatum and cerebellum) was homogenized; from tissue; host or cells: rat whole brain membranes (minus cortex, striatum and cerebellum); assay: [3H]Methyllycaconitine ([3H]MLA) binding assay; conditions: Table 1; rat whole brain membranes; read-out: [3H]MLA Binding (Ki) α7*
Sequence (Q05941 23-502): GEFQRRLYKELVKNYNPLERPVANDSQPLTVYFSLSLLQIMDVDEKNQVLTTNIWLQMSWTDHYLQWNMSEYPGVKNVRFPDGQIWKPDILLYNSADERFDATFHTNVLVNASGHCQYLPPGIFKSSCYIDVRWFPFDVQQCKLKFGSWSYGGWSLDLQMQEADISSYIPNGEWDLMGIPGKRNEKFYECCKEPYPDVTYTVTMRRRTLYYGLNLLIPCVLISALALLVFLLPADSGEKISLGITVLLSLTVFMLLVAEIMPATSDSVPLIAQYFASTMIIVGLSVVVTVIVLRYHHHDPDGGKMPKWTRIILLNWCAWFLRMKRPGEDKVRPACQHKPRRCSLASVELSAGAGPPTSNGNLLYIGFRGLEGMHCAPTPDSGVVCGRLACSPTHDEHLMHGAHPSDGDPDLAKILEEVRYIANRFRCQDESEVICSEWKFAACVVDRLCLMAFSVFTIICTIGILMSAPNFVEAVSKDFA
Reported Ki by item:

Compound	Ki
CN1[C@@H](CCc2ccccc2F)CCC[C@H]1CCc1ccccc1F	> 100 µM
CN1[C@@H](CCc2ccc(F)cc2)CCC[C@H]1CCc1ccc(F)cc1	> 100 µM
OCc1ccc(CC[C@H]2CCC[C@@H](CCc3ccc(CO)cc3)N2)cc1	> 100 µM
c1cc2c(cc1CC[C@H]1CCC[C@@H](CCc3ccc4c(c3)OCO4)N1)OCO2	> 100 µM
CC(=O)OCc1ccc(CC[C@H]2CCC[C@@H](CCc3ccc(COC(C)=O)cc3)N2)cc1	> 100 µM
Cc1ccc(S(=O)(=O)O[C@@H](C[C@H]2CCC[C@@H](CC(=O)c3ccccc3)N2C)c2ccccc2)cc1	10.8 µM
COc1cccc(CC[C@H]2CCC[C@@H](CCc3cccc(OC)c3)N2)c1	> 100 µM
CN1[C@H](CCc2ccccc2)CCC[C@@H]1C[C@H](O)c1ccccc1	> 100 µM
CN1[C@@H](CCc2ccccc2)CCC[C@H]1C[C@H](O)c1ccccc1	36.4 µM
CN1[C@@H](CC(=O)c2ccccc2)CCC[C@H]1/C=C/c1ccccc1	34.2 µM
CN1[C@@H](CC(=O)c2ccccc2)CCC[C@H]1CC(=O)c1ccccc1	22.7 µM
Fc1cccc(CC[C@H]2CCC[C@@H](CCc3cccc(F)c3)N2)c1 [Compound 32, 2,6-cis-di-(m-fluorophenethyl)piperidine]	> 100 µM
Clc1ccc(CC[C@H]2CCC[C@@H](CCc3ccc(Cl)cc3Cl)N2)c(Cl)c1	> 100 µM
COc1cccc(CC[C@H]2CCC[C@@H](CCc3cccc(OC)c3)N2C)c1	25.5 µM
CN1[C@H](CCc2ccccc2)CCC[C@@H]1C[C@@H](O)c1ccccc1	1.25 µM
COc1ccccc1CC[C@H]1CCC[C@@H](CCc2ccccc2OC)N1	> 100 µM
CN1[C@@H](C[C@H](O)c2ccccc2)CCC[C@H]1/C=C/c1ccccc1 (relative stereo)	> 100 µM

###

biological target: α4β2* nicotinic receptor (Rattus norvegicus, UniProt P09483+P12390); test: High affinity [3H]nicotine binding assay; set-up: The pellet containing the striatal membranes was resuspended; from tissue; host or cells: rat striatal membranes; conditions: Table 3; earlier study; read-out: Ki [3H]-Nicotine Binding Assay
# maps each entry to its Ki
Recorded metric: Ki (nM)

Compound	Recorded metric	Qualifier	Test result
CN1[C@@H](CC(=O)c2ccccc2)CCC[C@H]1CC(=O)c1ccccc1	Ki	=	11000
CN1[C@@H](C[C@@H](O)c2ccccc2)CCC[C@H]1C[C@H](O)c1ccccc1	Ki	=	930
CN1[C@@H](CC(=O)c2ccccc2)CCC[C@H]1/C=C/c1ccccc1	Ki	=	130
CN1[C@H](CCc2ccccc2)CCC[C@@H]1CC(O)c1ccccc1 (mixture of isomers)	Ki	=	160
CN1[C@@H](CCc2ccccc2)CCC[C@H]1CCc1ccccc1	Ki	=	14300
CN1[C@@H](C[C@H](O)c2ccccc2)CCC[C@H]1/C=C/c1ccccc1 (relative stereo)	Ki	=	4200
CN1[C@H](/C=C/c2ccccc2)CCC[C@@H]1/C=C/c1ccccc1	Ki	>	100000
Cc1ccc(S(=O)(=O)O[C@@H](C[C@H]2CCC[C@@H](CC(=O)c3ccccc3)N2C)c2ccccc2)cc1	Ki	=	4.1

###

biological target: dopamine transporter (DAT) (Rattus norvegicus, UniProt P23977); construct: Striata were homogenized in 20 ml of ice-cold sucrose solution; from tissue; host or cells: striatal synaptosomes; assay: [3H]Dopamine uptake assay, striatal synaptosomes; type: biochemical; settings: [3H]DA Uptake (Ki)
Sequence (P23977 whole entry): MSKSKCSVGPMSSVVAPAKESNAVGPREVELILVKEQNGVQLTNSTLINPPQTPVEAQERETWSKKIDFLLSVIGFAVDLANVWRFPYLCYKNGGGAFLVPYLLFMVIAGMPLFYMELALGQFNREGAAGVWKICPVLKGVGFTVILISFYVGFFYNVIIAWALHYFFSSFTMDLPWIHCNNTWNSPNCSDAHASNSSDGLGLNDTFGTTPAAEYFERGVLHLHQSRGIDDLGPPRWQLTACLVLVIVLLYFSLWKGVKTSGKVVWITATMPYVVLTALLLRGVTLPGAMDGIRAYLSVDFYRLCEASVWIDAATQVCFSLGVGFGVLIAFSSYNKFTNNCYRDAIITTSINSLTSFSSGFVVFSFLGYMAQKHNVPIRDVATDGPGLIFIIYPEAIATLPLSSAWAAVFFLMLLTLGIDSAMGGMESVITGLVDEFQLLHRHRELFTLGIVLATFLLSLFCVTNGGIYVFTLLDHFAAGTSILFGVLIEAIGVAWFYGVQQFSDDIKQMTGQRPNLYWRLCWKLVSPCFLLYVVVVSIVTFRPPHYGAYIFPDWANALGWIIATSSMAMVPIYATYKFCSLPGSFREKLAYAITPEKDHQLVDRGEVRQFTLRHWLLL
Ki values for the compounds below.
Recorded metric: Ki (µM)

Record smiles	Assay system	Test result
CN1[C@H](CCc2ccccc2)CCC[C@@H]1C[C@@H](O)c1ccccc1	dopamine transporter (DAT) (Rattus norvegicus, UniProt P23977)	6.62
CN1[C@@H](CCc2ccccc2)CCC[C@H]1CCc1ccccc1	dopamine transporter (DAT) (Rattus norvegicus, UniProt P23977)	1.95
CN1[C@H](CCc2ccccc2)CCC[C@H]1CCc1ccccc1	dopamine transporter (DAT) (Rattus norvegicus, UniProt P23977)	3.69

###

target: α3β4* nicotinic receptor (Rattus norvegicus, UniProt P04757+P12392); assay: Nicotine-evoked [3H]NE overflow from superfused hippocampal slices; type: cell-based; settings: Table 4; earlier studies; inhibition of 10 μM S(−)-nicotine
Sequence (P04757 26-499): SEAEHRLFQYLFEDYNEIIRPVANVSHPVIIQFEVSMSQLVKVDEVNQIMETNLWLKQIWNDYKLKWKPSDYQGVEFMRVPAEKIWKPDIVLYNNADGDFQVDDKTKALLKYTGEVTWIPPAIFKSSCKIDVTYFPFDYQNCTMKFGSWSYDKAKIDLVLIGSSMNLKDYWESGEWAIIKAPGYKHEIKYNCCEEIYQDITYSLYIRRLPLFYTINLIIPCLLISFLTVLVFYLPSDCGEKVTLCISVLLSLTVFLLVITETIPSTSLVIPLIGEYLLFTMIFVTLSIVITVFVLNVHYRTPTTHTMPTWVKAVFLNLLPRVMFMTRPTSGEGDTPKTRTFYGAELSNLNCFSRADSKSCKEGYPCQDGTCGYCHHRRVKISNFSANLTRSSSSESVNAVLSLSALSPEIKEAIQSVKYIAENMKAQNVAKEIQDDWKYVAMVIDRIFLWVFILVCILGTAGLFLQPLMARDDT
Sequence (P12392 21-495): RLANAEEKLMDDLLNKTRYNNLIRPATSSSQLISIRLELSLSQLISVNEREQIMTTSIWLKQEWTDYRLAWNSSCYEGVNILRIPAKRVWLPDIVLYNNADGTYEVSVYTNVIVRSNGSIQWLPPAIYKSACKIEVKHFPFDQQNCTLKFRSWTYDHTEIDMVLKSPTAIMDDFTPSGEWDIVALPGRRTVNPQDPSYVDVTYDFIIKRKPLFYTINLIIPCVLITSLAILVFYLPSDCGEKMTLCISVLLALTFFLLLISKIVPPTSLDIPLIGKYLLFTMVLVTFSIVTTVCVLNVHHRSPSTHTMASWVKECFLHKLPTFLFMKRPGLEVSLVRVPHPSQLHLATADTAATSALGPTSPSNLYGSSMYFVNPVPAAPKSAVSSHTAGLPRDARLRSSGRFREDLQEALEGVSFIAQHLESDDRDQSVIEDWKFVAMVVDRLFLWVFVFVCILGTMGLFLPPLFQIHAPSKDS
pIC50: −log10 of the molar value.

Molecule	pIC50
CN1[C@H](/C=C/c2ccccc2)CCC[C@@H]1/C=C/c1ccccc1 [Compound 14]	7.68
